Molecular target: Recombinant human Cbl-b (aa 36-427) (Homo sapiens, UniProt Q13191)
Sequence (Q13191 36-427): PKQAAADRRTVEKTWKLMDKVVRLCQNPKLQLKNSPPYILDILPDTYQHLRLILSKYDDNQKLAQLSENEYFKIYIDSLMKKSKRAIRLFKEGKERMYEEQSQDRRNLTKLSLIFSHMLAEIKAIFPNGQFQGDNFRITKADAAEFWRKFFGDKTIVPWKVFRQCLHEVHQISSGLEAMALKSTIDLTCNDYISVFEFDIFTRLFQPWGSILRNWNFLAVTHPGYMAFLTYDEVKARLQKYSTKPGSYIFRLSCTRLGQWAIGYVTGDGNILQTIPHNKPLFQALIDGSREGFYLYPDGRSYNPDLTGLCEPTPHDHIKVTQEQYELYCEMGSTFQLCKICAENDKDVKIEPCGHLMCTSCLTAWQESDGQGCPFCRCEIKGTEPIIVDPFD
Test: Cbl-b Biochemical Assay (TR-FRET)
Conditions: read-out: TR-FRET hCbl-b IC50
pIC50: −log10 of the molar value.
A collection of compounds and their measured pIC50

Answered cases to consult:
compound	pIC50
Cn1cnnc1-c1cc(F)ccc1-c1cccc(-c2nc3cc(CN[C@H]4CC[C@@H]4O)cc(C(F)(F)F)c3o2)c1 (racemic) [ADF-2]	> 6.70
Cn1cnnc1-c1cc(F)ccc1-c1cccc(-c2nc3cc(CNCC4(C)CCC4)cc(C(F)(F)F)c3o2)c1 [HK-2]	> 6.70
Cn1cnnc1-c1cc(F)ccc1-c1cc(Cl)nc(-c2nc3cc(CN[C@@H]4CCC[C@@H]4O)cc(C(F)(F)F)c3[nH]2)c1 [ADY-2]	> 6.70

Data request: What does the record list as pIC50 for Cc1cc(C(C)(C)N)cc2nc(-c3cc(-c4ccc(F)cc4-c4nncn4C)cc(C4CC4)n3)oc12 [AGR-9] ?
Data returned: 6.00 to 6.70

Data request: Using the record for Cn1cnnc1-c1cc(C#N)ccc1-c1cc(-c2nc3cc(CNCC4CCC4)cc(F)c3o2)nc(C2CC2)c1 [AHE-2] , report its pIC50.
Data returned: > 6.70

Data request: Find the recorded pIC50 belonging to Cc1cc([C@H](C)NCC2CCC2)cc2nc(-c3cc(-c4ccc(F)cc4-c4nncn4C)cc(C4CC4)n3)oc12 [AGX-1] and report it.
Data returned: > 6.70

Data request: Find the recorded pIC50 belonging to C[C@H](c1cc(C(F)(F)F)c2[nH]c(-c3cccc(C4(Cc5nncn5C)COC4)c3)nc2c1)N1CCC2(CC2)C1 [ACN-1] and report it.
Data returned: 6.00 to 6.70

Data request: Item COCCNCc1ccc2oc(-c3cc(-c4ccc(C#N)cc4-c4nncn4C)cc(C4CC4)n3)nc2c1 [AEN-15] has what recorded pIC50?
Data returned: > 6.70

Data request: Tell me the measured pIC50 of Cn1cnnc1CC1(c2cccc(-c3cc(C4CC4)c[nH]c3=O)c2)COC1 [ABX-3] , please.
Data returned: 4.30 to 5.00

Data request: Quick one: pIC50 of Cc1cc(CNCC2CCC2)cc2nc(-c3cccc(-c4ccc(F)cc4-c4nncn4C)c3)oc12 [GU-1] ?
Data returned: > 6.70
